# Test system: HBV rcDNA in HepDE19 cells
# assay: HepDE19 assay with bDNA quantitation of HBV rcDNA
# Assay type: cell-based, hepatitis B virus
# setup_conditions: Hepatitis B virus, HepDE19, HepDE19 assay, inhibition of rcDNA formation, bDNA quantitation; read-out: DE-19bDNA EC50
Listed next: entries and their corresponding EC50.

{"molecule": "CN(C(=O)c1cnc(C(F)(F)F)[nH]1)[C@@H]1COCc2[nH]c(=O)c3cc(F)c(F)cc3c21 [Compound 225]", "EC50": "13000 nM"}
{"molecule": "CN(C(=O)c1cc2cc(Cl)ncc2[nH]1)[C@@H]1COCc2[nH]c(=O)c3cc(F)c(F)cc3c21 [Compound 204]", "EC50": "40 nM"}
{"molecule": "CN(C(=O)c1cc2cc(F)cnc2[nH]1)[C@@H]1COCc2[nH]c(=O)c3cc(F)c(F)cc3c21 [Compound 190]", "EC50": "330 nM"}
{"molecule": "CN(C(=O)c1cc2cc(Br)ncc2[nH]1)[C@@H]1COCc2[nH]c(=O)c3cc(F)c(F)cc3c21 [Compound 213]", "EC50": "80 nM"}
{"molecule": "CN(C(=O)c1cc2sc(Cl)cc2[nH]1)[C@@H]1COCc2[nH]c(=O)c3cc(F)c(F)cc3c21 [Compound 349]", "EC50": "10 nM"}
{"molecule": "CN(C(=O)c1cc2ccsc2[nH]1)[C@@H]1COCc2[nH]c(=O)c3cc(F)c(F)cc3c21 [Compound 294]", "EC50": "50 nM"}
{"molecule": "CN(C(=O)[C@@H](O)c1ccccc1)[C@@H]1COCc2[nH]c(=O)c3cc(F)c(F)cc3c21 [Compound 95]", "EC50": "24000 nM"}
